- Test system: Capan-1 cells
- PROTOCOL NOTES: cells
- Assay type: cell-based, human
- CONDITIONS: Homo sapiens, read-out: IC50 (50% protein synthesis inhibition), single agent
REPORTED PROPERTY: pIC50
Scale note: pIC50 = -log10(concentration in M).

Task: Requested read-out: pIC50. Entry: Nc1ccn([C@@H]2O[C@H](CO)[C@@H](O)C2(F)F)c(=O)n1
Output: 8.49

====

- Tested on: SW1990 cells
- PROTOCOL NOTES: cells
- Type: cell-based, human
- CONDITIONS: Homo sapiens, read-out: IC50 (50% protein synthesis inhibition), single agent
REPORTED PROPERTY: pIC50
Scale note: pIC50 = -log10(concentration in M).

Task: Requested read-out: pIC50. Entry: Nc1ccn([C@@H]2O[C@H](CO)[C@@H](O)C2(F)F)c(=O)n1
Output: 6.00
